Assignment: determine reported Survival for the given compounds.
STUDY SYSTEM: Multidrug resistance-associated protein 1 (Homo sapiens)
MEASUREMENT DESCRIPTION: Inhibition of MRP1 in human 2008/MRP1 cells assessed as potentiation of doxorubicin-induced cytotoxicity by measuring cell survival at 2 uM after 5 days by MTS assay relative to control
Format: cell-based
CONDITION: 120 h
Numbers only, in %.

Find the recorded Survival belonging to [N-]=[N+]=NCCOCCOc1ccc(-c2oc3ccccc3c(=O)c2OCc2ccccc2)cc1 and report it. 72

Find the recorded Survival belonging to O=c1cc(-c2ccc(OCCOCCn3cc(CN(Cc4ccccc4)Cc4cn(CCOCCOc5ccc(-c6cc(=O)c7ccccc7o6)cc5)nn4)nn3)cc2)oc2ccccc12 and report it. 49

Find the recorded Survival belonging to O=c1cc(-c2ccccc2)oc2cc(OCCOCCn3cc(CCCOc4ccc(-c5cc(=O)c6cc(F)ccc6o5)cc4)nn3)ccc12 and report it. 111

Find the recorded Survival belonging to Cc1ccc2oc(-c3ccc(OCCOCCOCCn4cc(COCCOc5ccc6c(=O)cc(-c7ccccc7)oc6c5)nn4)cc3)cc(=O)c2c1 and report it. 54

Find the recorded Survival belonging to COc1cccc(COc2c(-c3ccc(OCCOCCn4cc(CNc5ccccc5)nn4)cc3)oc3ccccc3c2=O)c1 and report it. 89

For every item below, please supply its Survival.
1. COc1cccc(COc2c(-c3ccc(OCCOCCn4cc(CN(C)CCN(C)Cc5cn(CCOCCOc6ccc(-c7oc8ccccc8c(=O)c7OCc7cccc(OC)c7)cc6)nn5)nn4)cc3)oc3ccccc3c2=O)c1
2. COCOc1cc(OCc2ccccc2)c2c(=O)cc(-c3ccc(OCCCc4cn(CCOCCOc5ccc(-c6oc7ccccc7c(=O)c6OCc6ccccc6)cc5)nn4)cc3)oc2c1
3. Cc1ccc(O)c(C(=O)/C=C/c2ccc(OCCCCc3cn(CCOCCOc4ccc5c(=O)cc(-c6ccccc6)oc5c4)nn3)cc2)c1
4. CN(CCN(C)Cc1cn(CCOCCOCCOc2ccc(-c3oc4ccccc4c(=O)c3OCc3ccccc3)cc2)nn1)Cc1cn(CCOCCOCCOc2ccc(-c3oc4ccccc4c(=O)c3OCc3ccccc3)cc2)nn1
5. O=c1cc(-c2ccc(OCCCc3cn(CCOCCOc4ccc(-c5oc6ccccc6c(=O)c5OCc5ccccc5)cc4)nn3)cc2)oc2ccc(F)cc12

1: 64; 2: 88; 3: 73; 4: 84; 5: 97

For every item below, please supply its Survival.
1. O=c1[nH]c(-c2ccc(OCCCc3cn(CCOCCOCCOc4ccc(-c5cc(=O)c6ccccc6o5)cc4)nn3)cc2)nc2ccccc12
2. COCOc1cc(OCc2ccccc2)c2c(=O)cc(-c3ccc(OCCCc4cn(CCOCCOc5cccc(-c6oc7ccccc7c(=O)c6OCc6ccccc6)c5)nn4)cc3)oc2c1
3. COCOc1cc(OCc2ccccc2)c2c(=O)cc(-c3ccc(OCCCc4cn(CCOCCOCCOc5ccc(-c6oc7ccccc7c(=O)c6OCc6ccccc6)cc5)nn4)cc3)oc2c1
4. O=c1cc(-c2ccccc2)oc2cc(OCCn3cc(CN(Cc4ccccc4)Cc4cn(CCOc5ccc6occ(-c7ccccc7)c(=O)c6c5)nn4)nn3)ccc12
5. COc1cccc(COc2c(-c3ccc(OCCCCc4cn(CCOCCOCCOc5ccc(-c6oc7ccccc7c(=O)c6OCc6ccccc6)cc5)nn4)cc3)oc3ccccc3c2=O)c1
6. O=c1cc(-c2ccc(OCCOCCn3cc(CN(Cc4cn(CCOCCOc5ccc(-c6cc(=O)c7ccccc7o6)cc5)nn4)Cc4cn(CCOCCOc5ccc(-c6cc(=O)c7ccccc7o6)cc5)nn4)nn3)cc2)oc2ccccc12
7. O=c1cc(-c2ccccc2)oc2cc(OCCn3cc(CN4CCN(Cc5cn(CCOc6ccc7occ(-c8ccccc8)c(=O)c7c6)nn5)CC4)nn3)ccc12

76
74
89
96
33
82
93

For every item below, please supply its Survival.
1. O=c1cc(-c2ccccc2)oc2cc(OCCOCCn3cc(CNc4ccccc4)nn3)ccc12
2. O=c1cc(-c2ccccc2)oc2cc(OCCCCc3cn(CCOCCOc4cccc(-c5oc6ccccc6c(=O)c5OCc5ccccc5)c4)nn3)ccc12
3. CN(CCN(C)Cc1cn(CCOCCOc2ccc3oc(-c4ccccc4)cc(=O)c3c2)nn1)Cc1cn(CCOCCOc2ccc3c(=O)cc(-c4ccccc4)oc3c2)nn1

[88, 62, 99]

For every item below, please supply its Survival.
1. O=c1cc(-c2ccc(OCCOCCn3cc(CCCOc4ccc(-c5cc(=O)c6cc(F)ccc6o5)cc4)nn3)cc2)oc2ccccc12
2. O=c1cc(-c2ccccc2)oc2cc(OCCN(Cc3ccccc3)Cc3cn(CCOc4cccc5c(=O)cc(-c6ccccc6)oc45)nn3)ccc12

1. 93
2. 80

###

STUDY SYSTEM: Multidrug resistance-associated protein 1 (Homo sapiens)
MEASUREMENT DESCRIPTION: Inhibition of MRP1 in human 2008/MRP1 cells assessed as potentiation of doxorubicin-induced cytotoxicity by measuring cell survival at 2 uM after 5 days by MTS assay relative to control
Assay type: cell-based
CONDITION: 120 h
# 1.0 = Survival below 60% (exclusive); 0.0 = Survival at/above 60%

Confirm or reject: Survival of Cc1ccc(C(=O)/C=C/c2ccc(OCCCCc3cn(CCOCCOc4cccc(-c5oc6ccccc6c(=O)c5OCc5ccccc5)c4)nn3)cc2)c(O)c1 lies strictly below 60% 0.0

Confirm or reject: Survival of O=c1cc(-c2ccc(OCCCc3cn(CCOCCOCCOc4ccc(-c5cc(=O)c6cc(F)ccc6o5)cc4)nn3)cc2)oc2cc(F)ccc12 lies strictly below 60% 1.0

Confirm or reject: Survival of O=c1cc(-c2ccc(OCCCc3cn(CCOCCOCCOc4ccc5c(=O)cc(-c6ccccc6)oc5c4)nn3)cc2)oc2cc(F)ccc12 lies strictly below 60% 1.0

Confirm or reject: Survival of O=c1cc(-c2ccc(OCCCc3cn(CCOCCOCCOc4ccc(-c5oc6ccccc6c(=O)c5OCc5ccccc5)cc4)nn3)cc2)oc2ccccc12 lies strictly below 60% 1.0

Confirm or reject: Survival of O=c1cc(-c2ccc(OCCCc3cn(CCOc4cccc5c(=O)cc(-c6ccccc6)oc45)nn3)cc2)oc2cc(F)ccc12 lies strictly below 60% 0.0

Confirm or reject: Survival of O=C1c2ccccc2C(=O)N1CCc1cn(CCOCCOc2ccc(-c3oc4ccccc4c(=O)c3OCc3ccccc3)cc2)nn1 lies strictly below 60% 1.0

---
Confirm or reject: Survival of O=Cc1ccc(OCCCCc2cn(CCOCCOc3ccc(-c4cc(=O)c5ccccc5o4)cc3)nn2)cc1 lies strictly below 60% 0.0

Confirm or reject: Survival of O=c1c(OCc2ccccc2)c(-c2ccc(OCCOCCOCCn3cc(CN(Cc4cn(CCOCCOCCOc5ccc(-c6oc7ccccc7c(=O)c6OCc6ccccc6)cc5)nn4)Cc4cn(CCOCCOCCOc5ccc(-c6oc7ccccc7c(=O)c6OCc6ccccc6)cc5)nn4)nn3)cc2)oc2ccccc12 lies strictly below 60% 0.0

Confirm or reject: Survival of Cc1ccc(O)c(C(=O)/C=C/c2ccc(OCCCCc3cn(CCOc4cccc5c(=O)cc(-c6ccccc6)oc45)nn3)cc2)c1 lies strictly below 60% 0.0

###

STUDY SYSTEM: Multidrug resistance-associated protein 1 (Homo sapiens, UniProt P33527)
Sequence (P33527 whole entry): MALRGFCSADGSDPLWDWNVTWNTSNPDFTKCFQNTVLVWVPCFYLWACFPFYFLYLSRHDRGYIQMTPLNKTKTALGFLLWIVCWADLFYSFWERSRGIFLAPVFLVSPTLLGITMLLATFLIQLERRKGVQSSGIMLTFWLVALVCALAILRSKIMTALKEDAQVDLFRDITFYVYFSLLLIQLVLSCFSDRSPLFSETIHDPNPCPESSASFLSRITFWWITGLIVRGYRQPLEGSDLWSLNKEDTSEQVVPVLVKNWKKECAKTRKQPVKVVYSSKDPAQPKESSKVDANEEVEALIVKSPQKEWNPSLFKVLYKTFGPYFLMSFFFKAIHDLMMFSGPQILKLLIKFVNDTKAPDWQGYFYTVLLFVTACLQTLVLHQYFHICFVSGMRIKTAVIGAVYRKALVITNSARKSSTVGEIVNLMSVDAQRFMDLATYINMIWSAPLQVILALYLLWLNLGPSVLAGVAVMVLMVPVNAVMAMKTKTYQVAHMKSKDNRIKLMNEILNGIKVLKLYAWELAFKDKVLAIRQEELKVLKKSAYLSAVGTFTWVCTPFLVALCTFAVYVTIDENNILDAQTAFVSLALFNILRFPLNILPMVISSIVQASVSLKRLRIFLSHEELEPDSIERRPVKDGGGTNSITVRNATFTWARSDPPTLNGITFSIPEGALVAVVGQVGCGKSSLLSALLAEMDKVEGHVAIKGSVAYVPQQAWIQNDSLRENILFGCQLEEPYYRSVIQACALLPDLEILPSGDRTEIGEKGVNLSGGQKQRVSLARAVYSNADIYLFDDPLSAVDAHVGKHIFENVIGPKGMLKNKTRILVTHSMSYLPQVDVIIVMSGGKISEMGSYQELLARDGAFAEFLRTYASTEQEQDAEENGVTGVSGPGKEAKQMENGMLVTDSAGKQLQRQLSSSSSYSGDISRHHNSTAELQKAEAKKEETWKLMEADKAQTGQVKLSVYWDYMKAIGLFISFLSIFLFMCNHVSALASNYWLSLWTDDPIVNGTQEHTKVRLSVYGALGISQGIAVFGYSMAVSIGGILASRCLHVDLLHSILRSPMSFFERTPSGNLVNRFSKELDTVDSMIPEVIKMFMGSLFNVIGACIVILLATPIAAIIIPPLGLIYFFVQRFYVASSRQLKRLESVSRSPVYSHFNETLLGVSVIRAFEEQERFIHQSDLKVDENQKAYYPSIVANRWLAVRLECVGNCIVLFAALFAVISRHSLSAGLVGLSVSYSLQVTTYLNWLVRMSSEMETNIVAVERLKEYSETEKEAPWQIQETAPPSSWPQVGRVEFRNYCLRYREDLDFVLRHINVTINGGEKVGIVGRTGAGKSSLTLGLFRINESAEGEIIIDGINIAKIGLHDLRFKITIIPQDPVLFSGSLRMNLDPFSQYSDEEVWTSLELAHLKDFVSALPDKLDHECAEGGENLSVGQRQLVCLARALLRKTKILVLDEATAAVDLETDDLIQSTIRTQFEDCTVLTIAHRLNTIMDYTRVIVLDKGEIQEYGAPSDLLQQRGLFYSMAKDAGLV
MEASUREMENT DESCRIPTION: Inhibition of MRP1 in human 2008/MRP1 cells assessed as potentiation of doxorubicin-induced cytotoxicity by measuring cell survival at 2 uM after 5 days by MTS assay relative to control
Type: cell-based
CONDITION: 120 h
READOUT KIND: Survival (%)
Numbers only, in %.

Find the recorded Survival belonging to COc1cccc(COc2c(-c3ccc(OCCOCCn4cc(CCCOc5ccc(-c6cc(=O)c7ccccc7o6)cc5)nn4)cc3)oc3ccccc3c2=O)c1 and report it. 68

Find the recorded Survival belonging to COc1cccc(COc2c(-c3ccc(OCCOCCn4cc(CCCCOc5ccc(/C=C/C(=O)c6ccc(C)cc6O)cc5)nn4)cc3)oc3ccccc3c2=O)c1 and report it. 78

Find the recorded Survival belonging to O=Cc1ccc(OCCCCc2cn(CCOCCOc3ccc(-c4cc(=O)c5cc(F)ccc5o4)cc3)nn2)cc1 and report it. 78

For every item below, please supply its Survival.
1. O=c1cc(-c2ccccc2)oc2cc(OCCCCc3cn(CCOCCOc4ccc(-c5oc6ccccc6c(=O)c5OCc5ccccc5)cc4)nn3)ccc12
2. O=c1cc(-c2ccc(OCCCc3cn(CCOc4cccc5c(=O)cc(-c6ccccc6)oc45)nn3)cc2)oc2ccccc12
3. O=Cc1ccc(OCCCCc2cn(CCOCCOCCOc3ccc4c(=O)cc(-c5ccccc5)oc4c3)nn2)cc1
4. Cc1ccc(O)c(C(=O)/C=C/c2ccc(OCCCCc3cn(CCOCCOCCOc4ccc(-c5cc(=O)c6cc(F)ccc6o5)cc4)nn3)cc2)c1
5. CCc1ccc(O)c(C(=O)/C=C/c2ccc(OCCCCc3cn(CCOCCOc4ccc5c(=O)cc(-c6ccccc6)oc5c4)nn3)cc2)c1

[79, 69, 81, 72, 68]

For every item below, please supply its Survival.
1. C#CCCCOc1ccc(-c2cc(=O)c3cc(F)ccc3o2)cc1
2. O=c1cc(-c2ccccc2)oc2cc(OCCOCc3cn(CCOc4cccc5c(=O)cc(-c6ccccc6)oc45)nn3)ccc12

[81, 68]
